Please go through the items and note down their binding signal.
Molecular target: T1, RBFOX1 RRM (Homo sapiens, UniProt Q9NWB1 109-208)
T1 sequence: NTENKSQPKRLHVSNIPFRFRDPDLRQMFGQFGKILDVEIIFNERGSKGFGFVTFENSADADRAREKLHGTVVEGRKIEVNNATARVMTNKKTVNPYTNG
Experiment: EMSA; HiTS-Eq, 1 nM pool, 10 min; buffer printed only for the single-RNA assays: 10 mM Tris pH 7.5, 150 mM NaCl, 3.4 mM EDTA, 0.001% NP-40, 30 C
Details: tags: His6 N-terminal (pET28a); label: 5' 32P
In all, about 16,000 sequences were measured (“ka relative to ugcaugu”: median about 0.0091, highest 2% from about 0.032 on). For the sample, the highest values were picked, then their nearest neighbours and some sequences at random.

Each binder below has a recorded value; state its binding signal.
1. AGGCACG (DNA:RNA) RNA: GGGAGACCGGAAUUCAGAUUGUCCAGGCACGUUAAAUCCCGUCGUAGCCACCA DNA 1: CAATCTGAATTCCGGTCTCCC DNA 2: TGGTGGCTACGACGGGATT
2. GUUAAAU (DNA:RNA) RNA: GGGAGACCGGAAUUCAGAUUGUCCGUUAAAUUUAAAUCCCGUCGUAGCCACCA DNA 1: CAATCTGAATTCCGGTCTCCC DNA 2: TGGTGGCTACGACGGGATT
3. ACGUCGU (DNA:RNA) RNA: GGGAGACCGGAAUUCAGAUUGUCCACGUCGUUUAAAUCCCGUCGUAGCCACCA DNA 1: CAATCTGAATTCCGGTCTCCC DNA 2: TGGTGGCTACGACGGGATT
4. CGGGCGU (DNA:RNA) RNA: GGGAGACCGGAAUUCAGAUUGUCCCGGGCGUUUAAAUCCCGUCGUAGCCACCA DNA 1: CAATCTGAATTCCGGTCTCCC DNA 2: TGGTGGCTACGACGGGATT

1. 0.0414 KA relative to UGCAUGU
2. 0.00766 KA relative to UGCAUGU
3. 0.00803 KA relative to UGCAUGU
4. 0.029 KA relative to UGCAUGU
